- protocol: chemical genetic growth profiling, strain panel (AID 1159580);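 further: tested at 20 µM; growth read once vehicle control cultures reached saturation at 30 °C; 1 = growth at the plate median or of vehicle wells; lower values mean less growth of the strain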
- run_parameters: S. cerevisiae deletion strains, growth OD, locus YAL021C, strain ccr4, stronger effect = lower value
Hit rate of the full screen: of about 5,500 compounds, about 2,000 (36%) were called active. Inconclusive results (about 18%) are left out. Some of the results follow.
Parameter: normalized growth. Scope: all listed entries.
Quick one: just the number, no unit, thanks!

Past entries and their recorded results:
CC(NCCc1ccc(O)cc1)C(O)c1ccc(O)cc1 (stereo not drawn) : 0.997
CC1=C(C(C)O)C2=NC1C=c1[nH]c(c(C)c1C(C)O)=Cc1[nH]c(c(CCC(=O)O)c1C)C=c1[nH]c(c(C)c1CCC(=O)O)=C2 (stereo not drawn) : 0.982
COP(=O)(OC)OC=C(Cl)Cl : 0.988

Record summary for C[N+](C)(C)CCOC(N)=O : reported normalized growth = 1.03

Entry under test: OCCN1C[C@@H](O)[C@@H](O)C(O)C1CO (stereo partly drawn) . Its normalized growth was 0.993

molecule COC1=C(OC)C(=O)C(C/C=C(\C)CC/C=C(\C)CC/C=C(\C)CC/C=C(/C)CC/C=C(\C)CC/C=C(\C)CC/C=C(\C)CC/C=C(\C)CC/C=C(\C)CCC=C(C)C)=C(C)C1=O , normalized growth observed: 0.983

normalized growth measured on COCCc1ccc(OCC(O)CNC(C)C)cc1 (stereo not drawn) = 1

The recorded normalized growth for CCN(CC)CCNC(=O)c1cc(Br)c(N)cc1OC is 0.984

Reported normalized growth of CN(C)C(=S)SSC(=S)N(C)C : 0.0666

// normalized growth value for CC1=C(/C=C/C(C)=C/C=C/C(C)=C/C=C/C=C(C)/C=C/C=C(C)/C=C/C(=O)[C@]2(C)C[C@@H](O)CC2(C)C)C(C)(C)C[C@H](O)C1 : 1.05

# molecule CC(=O)OCC(=O)[C@@]1(O)CCC2C3CCC4=CC(=O)CC[C@]4(C)C3C(=O)C[C@@]21C (stereo partly drawn) ; its normalized growth = 0.988
